Each recorded value in this set is attributed to patent US12258327B2.

- target-system: EGFR del19/T790M/C797S (Homo sapiens, UniProt P00533, C797S/DEL746-750/T790M)
- Sequence (P00533 with tags, fused parts or gaps DEL746-750/T790M/C797S): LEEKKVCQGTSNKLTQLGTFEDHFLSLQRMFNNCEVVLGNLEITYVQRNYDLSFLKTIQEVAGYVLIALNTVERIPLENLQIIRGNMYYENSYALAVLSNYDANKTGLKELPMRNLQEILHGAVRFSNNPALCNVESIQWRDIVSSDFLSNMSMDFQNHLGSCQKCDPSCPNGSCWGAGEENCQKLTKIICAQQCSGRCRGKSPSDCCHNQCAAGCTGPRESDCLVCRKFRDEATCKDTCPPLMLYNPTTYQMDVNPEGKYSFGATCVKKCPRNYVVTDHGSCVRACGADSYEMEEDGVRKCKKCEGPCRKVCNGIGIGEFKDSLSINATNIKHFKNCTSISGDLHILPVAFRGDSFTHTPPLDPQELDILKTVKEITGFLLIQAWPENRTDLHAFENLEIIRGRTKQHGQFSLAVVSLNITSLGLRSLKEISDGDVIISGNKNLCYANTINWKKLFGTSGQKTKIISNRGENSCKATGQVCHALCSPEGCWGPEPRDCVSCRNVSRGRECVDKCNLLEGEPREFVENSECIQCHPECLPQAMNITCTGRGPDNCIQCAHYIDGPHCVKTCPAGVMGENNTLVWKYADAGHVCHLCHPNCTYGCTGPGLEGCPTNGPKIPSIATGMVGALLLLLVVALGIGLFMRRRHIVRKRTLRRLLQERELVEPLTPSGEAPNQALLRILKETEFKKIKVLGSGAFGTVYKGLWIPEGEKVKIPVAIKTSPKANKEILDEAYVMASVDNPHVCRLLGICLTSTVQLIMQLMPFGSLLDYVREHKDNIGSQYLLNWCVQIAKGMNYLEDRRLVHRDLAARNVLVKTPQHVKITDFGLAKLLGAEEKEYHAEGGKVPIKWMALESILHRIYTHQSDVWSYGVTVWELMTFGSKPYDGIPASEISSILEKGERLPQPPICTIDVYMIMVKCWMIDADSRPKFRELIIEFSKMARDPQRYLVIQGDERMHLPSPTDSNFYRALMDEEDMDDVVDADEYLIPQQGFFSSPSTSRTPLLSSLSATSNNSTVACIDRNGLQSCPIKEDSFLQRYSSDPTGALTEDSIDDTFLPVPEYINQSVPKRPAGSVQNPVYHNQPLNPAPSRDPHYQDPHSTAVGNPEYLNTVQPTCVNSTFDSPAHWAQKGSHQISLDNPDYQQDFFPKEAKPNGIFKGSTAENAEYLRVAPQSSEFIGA
- assay-procedure: Biochemical EGFR kinase assay (Lance Ultra TR-FRET), triple mutant del19/T790M/C797S
- setup-conditions: Km ATP; read-out: IC50 del19/T790M/C797S (nM) Km ATP
Entries whose IC50 is below 0.9 nM take satisfied; entries at or above 0.9 nM take not satisfied.

{"structure": "CN(CC(F)F)C[C@H]1CC[C@@H](Nc2cc(Nc3ccnc(-c4cnn(S(=O)(=O)C5CC5)c4)n3)ncc2-c2ccn(C)n2)CC1", "target-system": "EGFR del19/T790M/C797S (Homo sapiens, UniProt P00533, C797S/DEL746-750/T790M)", "qualitative-label": "not satisfied"}
{"structure": "CC(=O)N1CC=C(c2nccc(Nc3cc(N[C@H]4CC[C@@](C)(O)CC4)c(-c4ccn(C(F)F)n4)cn3)n2)CC1", "target-system": "EGFR del19/T790M/C797S (Homo sapiens, UniProt P00533, C797S/DEL746-750/T790M)", "qualitative-label": "not satisfied"}
{"structure": "CNC[C@H]1CC[C@H](CNc2cc(Nc3ccnc(-c4cnn(S(=O)(=O)C5CC5)c4)n3)ncc2-c2ccn(C(F)F)n2)CC1", "target-system": "EGFR del19/T790M/C797S (Homo sapiens, UniProt P00533, C797S/DEL746-750/T790M)", "qualitative-label": "satisfied"}
{"structure": "CCS(=O)(=O)n1cc(-c2nccc(Nc3cc(N[C@H]4CC[C@@](C)(O)CC4)c(-c4ccn(C(F)F)n4)cn3)n2)cn1", "target-system": "EGFR del19/T790M/C797S (Homo sapiens, UniProt P00533, C797S/DEL746-750/T790M)", "qualitative-label": "satisfied"}

---

- target-system: EGFR wildtype (WT) (Homo sapiens, UniProt P00533)
- Sequence (P00533 25-1210): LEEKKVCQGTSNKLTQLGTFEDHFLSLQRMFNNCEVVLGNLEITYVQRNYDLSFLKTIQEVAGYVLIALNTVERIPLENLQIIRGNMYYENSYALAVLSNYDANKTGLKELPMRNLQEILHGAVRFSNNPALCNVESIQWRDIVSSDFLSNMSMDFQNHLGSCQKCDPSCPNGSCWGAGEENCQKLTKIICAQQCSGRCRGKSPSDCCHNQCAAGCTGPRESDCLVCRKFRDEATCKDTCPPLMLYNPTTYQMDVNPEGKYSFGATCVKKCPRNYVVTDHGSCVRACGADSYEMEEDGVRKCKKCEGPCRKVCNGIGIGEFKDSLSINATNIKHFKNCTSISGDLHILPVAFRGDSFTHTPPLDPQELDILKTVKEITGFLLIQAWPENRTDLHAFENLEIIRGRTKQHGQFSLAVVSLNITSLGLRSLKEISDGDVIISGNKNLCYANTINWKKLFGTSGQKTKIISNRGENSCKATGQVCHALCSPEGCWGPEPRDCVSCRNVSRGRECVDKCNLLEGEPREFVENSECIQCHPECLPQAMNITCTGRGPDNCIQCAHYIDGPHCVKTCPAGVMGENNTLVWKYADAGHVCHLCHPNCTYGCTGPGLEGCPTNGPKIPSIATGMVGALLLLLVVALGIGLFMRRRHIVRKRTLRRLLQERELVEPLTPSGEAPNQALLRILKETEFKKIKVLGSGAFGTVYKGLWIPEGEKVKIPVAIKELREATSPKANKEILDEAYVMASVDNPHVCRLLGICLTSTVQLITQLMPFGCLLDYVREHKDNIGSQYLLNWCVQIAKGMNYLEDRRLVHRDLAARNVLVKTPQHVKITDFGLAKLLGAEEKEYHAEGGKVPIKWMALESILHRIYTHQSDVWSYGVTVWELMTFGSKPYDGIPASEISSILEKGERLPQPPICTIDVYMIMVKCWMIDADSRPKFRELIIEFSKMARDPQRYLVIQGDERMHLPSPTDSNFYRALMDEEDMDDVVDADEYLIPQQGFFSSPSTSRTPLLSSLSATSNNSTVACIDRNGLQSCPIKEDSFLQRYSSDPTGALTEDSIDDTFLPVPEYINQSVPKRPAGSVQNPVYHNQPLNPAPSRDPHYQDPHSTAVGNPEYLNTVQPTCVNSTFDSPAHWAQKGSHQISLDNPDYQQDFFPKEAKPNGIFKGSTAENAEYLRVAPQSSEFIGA
- assay-procedure: Biochemical EGFR kinase assay (Lance Ultra TR-FRET), wildtype
- setup-conditions: Km ATP; read-out: IC50 WT (nM) Km ATP

{"structure": "Cn1ccc(-c2cnc(Nc3ccnc(-c4cnn(S(=O)(=O)C5CC5)c4)n3)cc2NCC2(CO)COC2)n1", "target-system": "EGFR wildtype (WT) (Homo sapiens, UniProt P00533)", "IC50 [nM]": 3.3}
{"structure": "Cn1ccc(-c2cnc(Nc3ccnc(-c4cnn(S(=O)(=O)C5CC5)c4)n3)cc2NC[C@H]2CC[C@@H](O)C2)n1", "target-system": "EGFR wildtype (WT) (Homo sapiens, UniProt P00533)", "IC50 [nM]": 4.9}
{"structure": "CN(C)CCCn1ccc(-c2cnc(Nc3ccnc(-c4cnn(S(=O)(=O)C5CC5)c4)n3)cc2NCC2(CO)COC2)n1", "target-system": "EGFR wildtype (WT) (Homo sapiens, UniProt P00533)", "IC50 [nM]": 4.9}
{"structure": "O=S(=O)(C1CC1)n1cc(-c2nccc(Nc3cc(N[C@H]4CC[C@@H](CN5CCC5)CC4)c(-c4ccn(C(F)F)n4)cn3)n2)cn1", "target-system": "EGFR wildtype (WT) (Homo sapiens, UniProt P00533)", "IC50 [nM]": 0.6}
{"structure": "CN(C)C[C@H]1CC[C@@H](Nc2cc(Nc3ccnc(-c4cnn(S(=O)(=O)C5CC5)c4)n3)ncc2-c2ccn(C(F)F)n2)CC1", "target-system": "EGFR wildtype (WT) (Homo sapiens, UniProt P00533)", "IC50 [nM]": 0.3}
{"structure": "O=S(=O)(C1CC1)n1cc(-c2ncc(F)c(Nc3cc(N[C@H]4CC[C@@H](CN5CCC5)CC4)c(-c4ccn(C(F)F)n4)cn3)n2)cn1", "target-system": "EGFR wildtype (WT) (Homo sapiens, UniProt P00533)", "IC50 [nM]": 6.5}

---

Catalogue of compounds with associated IC50
- target-system: EGFR L858R/T790M/C797S (Homo sapiens, UniProt P00533, C797S/L858R/T790M)
- Sequence (P00533 25-1210 T790M/C797S/L858R): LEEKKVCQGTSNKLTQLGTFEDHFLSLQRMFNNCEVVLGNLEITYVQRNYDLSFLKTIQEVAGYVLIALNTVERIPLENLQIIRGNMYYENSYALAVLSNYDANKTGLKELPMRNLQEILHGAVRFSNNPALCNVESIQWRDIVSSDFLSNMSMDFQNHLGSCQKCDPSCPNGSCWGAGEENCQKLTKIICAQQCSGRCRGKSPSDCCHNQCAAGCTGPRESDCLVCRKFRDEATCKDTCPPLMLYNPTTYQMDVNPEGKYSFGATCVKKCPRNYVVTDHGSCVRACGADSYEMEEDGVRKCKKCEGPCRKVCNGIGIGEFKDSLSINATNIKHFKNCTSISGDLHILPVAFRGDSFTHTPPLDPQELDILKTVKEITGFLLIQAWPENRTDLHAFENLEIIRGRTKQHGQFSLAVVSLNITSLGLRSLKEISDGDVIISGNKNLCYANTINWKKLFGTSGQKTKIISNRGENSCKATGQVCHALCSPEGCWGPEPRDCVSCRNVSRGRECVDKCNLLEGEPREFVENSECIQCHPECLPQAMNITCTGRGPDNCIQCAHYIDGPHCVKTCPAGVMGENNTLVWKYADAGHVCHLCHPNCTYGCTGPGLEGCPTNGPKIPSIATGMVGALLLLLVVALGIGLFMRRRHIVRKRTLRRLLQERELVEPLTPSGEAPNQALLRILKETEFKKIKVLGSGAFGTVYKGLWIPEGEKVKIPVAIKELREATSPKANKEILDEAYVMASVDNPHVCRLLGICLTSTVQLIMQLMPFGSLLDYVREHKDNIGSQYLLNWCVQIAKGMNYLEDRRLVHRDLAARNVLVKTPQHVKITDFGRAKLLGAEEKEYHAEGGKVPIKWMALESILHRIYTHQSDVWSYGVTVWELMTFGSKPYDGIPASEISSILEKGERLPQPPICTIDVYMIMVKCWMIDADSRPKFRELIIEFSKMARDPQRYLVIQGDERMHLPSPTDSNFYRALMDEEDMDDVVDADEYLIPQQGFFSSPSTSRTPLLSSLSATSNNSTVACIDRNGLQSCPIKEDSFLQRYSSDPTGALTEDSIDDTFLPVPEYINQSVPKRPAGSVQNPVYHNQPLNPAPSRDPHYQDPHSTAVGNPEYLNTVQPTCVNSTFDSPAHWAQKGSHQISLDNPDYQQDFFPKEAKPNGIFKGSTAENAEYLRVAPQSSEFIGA
- assay-procedure: Biochemical EGFR kinase assay (Lance Ultra TR-FRET), triple mutant L858R/T790M/C797S
- setup-conditions: Km ATP; read-out: IC50 L858R/T790M/C797S (nM) Km ATP

{"compound": "Cn1ccc(-c2cnc(Nc3ccnc(-c4cnn(S(=O)(=O)C5CC5)c4)n3)cc2N[C@H]2CC[C@@H](NCCF)CC2)n1 [Example 43]", "target-system": "EGFR L858R/T790M/C797S (Homo sapiens, UniProt P00533, C797S/L858R/T790M)", "IC50 [nM]": 0.1}
{"compound": "CN(C)CC[C@H]1CC[C@@H](Nc2cc(Nc3ccnc(-c4cnn(S(=O)(=O)C5CC5)c4)n3)ncc2-c2ccn(C(F)F)n2)CC1 [Example 211]", "target-system": "EGFR L858R/T790M/C797S (Homo sapiens, UniProt P00533, C797S/L858R/T790M)", "IC50 [nM]": 0.3}
{"compound": "O=S(=O)(C1CC1)n1cc(-c2nccc(Nc3cc(N[C@H]4CC[C@@H](NCCF)CC4)c(-c4nc(C(F)F)cs4)cn3)n2)cn1 [Example 123]", "target-system": "EGFR L858R/T790M/C797S (Homo sapiens, UniProt P00533, C797S/L858R/T790M)", "IC50 [nM]": 0.1}

---

- target-system: EGFR L858R/C797S (Homo sapiens, UniProt P00533, C797S/L858R)
- Sequence (P00533 25-1210 C797S/L858R): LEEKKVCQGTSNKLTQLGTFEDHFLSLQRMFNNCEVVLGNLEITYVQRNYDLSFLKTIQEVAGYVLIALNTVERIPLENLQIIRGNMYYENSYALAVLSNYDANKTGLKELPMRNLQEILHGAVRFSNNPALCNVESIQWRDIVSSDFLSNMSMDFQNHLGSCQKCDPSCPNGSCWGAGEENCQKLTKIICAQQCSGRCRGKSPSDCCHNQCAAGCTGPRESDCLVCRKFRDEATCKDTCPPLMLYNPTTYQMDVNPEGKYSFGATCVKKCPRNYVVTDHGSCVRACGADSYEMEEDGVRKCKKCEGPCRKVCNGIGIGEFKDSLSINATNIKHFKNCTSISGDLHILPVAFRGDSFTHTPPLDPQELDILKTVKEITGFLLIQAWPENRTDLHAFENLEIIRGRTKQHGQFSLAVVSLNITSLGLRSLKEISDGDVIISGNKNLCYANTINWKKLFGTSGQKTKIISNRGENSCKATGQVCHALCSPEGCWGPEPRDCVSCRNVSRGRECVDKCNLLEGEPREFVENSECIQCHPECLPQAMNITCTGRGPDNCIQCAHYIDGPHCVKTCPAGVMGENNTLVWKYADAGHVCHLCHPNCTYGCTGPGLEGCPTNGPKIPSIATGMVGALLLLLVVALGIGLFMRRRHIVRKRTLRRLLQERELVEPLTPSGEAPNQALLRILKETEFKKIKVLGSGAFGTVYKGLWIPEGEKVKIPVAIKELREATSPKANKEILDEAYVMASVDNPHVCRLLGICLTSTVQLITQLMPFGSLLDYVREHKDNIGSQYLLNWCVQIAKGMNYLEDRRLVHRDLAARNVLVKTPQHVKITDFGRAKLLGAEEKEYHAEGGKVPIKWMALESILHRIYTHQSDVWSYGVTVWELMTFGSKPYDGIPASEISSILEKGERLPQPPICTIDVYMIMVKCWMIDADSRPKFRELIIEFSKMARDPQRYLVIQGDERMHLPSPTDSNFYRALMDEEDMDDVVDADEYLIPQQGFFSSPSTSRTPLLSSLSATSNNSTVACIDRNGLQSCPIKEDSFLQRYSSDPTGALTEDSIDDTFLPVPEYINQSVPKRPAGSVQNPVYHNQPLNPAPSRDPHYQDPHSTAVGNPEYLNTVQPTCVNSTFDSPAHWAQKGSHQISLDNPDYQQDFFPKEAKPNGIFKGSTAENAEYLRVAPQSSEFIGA
- assay-procedure: Biochemical EGFR kinase assay (Lance Ultra TR-FRET), double mutant L858R/C797S
- setup-conditions: IC50 L858R/C797S (nM) 100 μM ATP, 100 μM ATP
- Procedure: Biochemical EGFR kinase assays were conducted using Lance Ultra time-resolved fluorescence resonance energy transfer (TR-FRET) technology from Perkin-Elmer. […] Each kinase reactions were incubated at room temperature for 1 hour and then stopped by the addition of 4 μL of stop solution (10 mM EDTA). […] After 60 minutes incubation at room temperature the LANCE signal was measured on an EnVision Multilabel Reader (Perkin-Elmer). […]

{"compound": "C[C@]1(O)CC[C@@H](Nc2cc(Nc3ccnc(-c4cnn(CC(F)F)c4)n3)ncc2-c2ccn(C(F)F)n2)CC1 [Example 143]", "target-system": "EGFR L858R/C797S (Homo sapiens, UniProt P00533, C797S/L858R)", "IC50 [nM]": 11.6}
{"compound": "Cn1nc(-c2cnc(Nc3ccnc(-c4cnn(S(=O)(=O)C5CC5)c4)n3)cc2N[C@H]2CC[C@@H](C(C)(C)O)CC2)cc1C(F)(F)F [Example 254]", "target-system": "EGFR L858R/C797S (Homo sapiens, UniProt P00533, C797S/L858R)", "IC50 [nM]": 33.5}
{"compound": "CN(C)C(=O)C[C@H]1CC[C@@H](Nc2cc(Nc3ccnc(-c4cnn(S(=O)(=O)C5CC5)c4)n3)ncc2-c2ccn(C(F)F)n2)CC1 [Example 205]", "target-system": "EGFR L858R/C797S (Homo sapiens, UniProt P00533, C797S/L858R)", "IC50 [nM]": 10.1}
{"compound": "Cn1nc(-c2cnc(Nc3ccnc(-c4cnn(S(=O)(=O)C5CC5)c4)n3)cc2N[C@H]2CC[C@@H](CO)CC2)cc1C(F)(F)F [Example 253]", "target-system": "EGFR L858R/C797S (Homo sapiens, UniProt P00533, C797S/L858R)", "IC50 [nM]": 10.6}
{"compound": "O=S(=O)(C1CC1)n1cc(-c2nccc(Nc3cc(N[C@H]4CC[C@](O)(CO)CC4)c(-c4cc5n(n4)CCCC5)cn3)n2)cn1 [Example 275]", "target-system": "EGFR L858R/C797S (Homo sapiens, UniProt P00533, C797S/L858R)", "IC50 [nM]": 4.7}
{"compound": "O=S(=O)(C1CC1)n1cc(-c2nccc(Nc3cc(OC4CCC(O)CC4)c(-c4cnn(C(F)F)c4)cn3)n2)cn1 (stereo not shown) [Example 71]", "target-system": "EGFR L858R/C797S (Homo sapiens, UniProt P00533, C797S/L858R)", "IC50 [nM]": 42.3}
{"compound": "O=S(=O)(C1CC1)n1cc(-c2nccc(Nc3cc(N[C@H]4CC[C@@H](O)CC4)c(-c4csc(C(F)(F)F)n4)cn3)n2)cn1 [Example 81]", "target-system": "EGFR L858R/C797S (Homo sapiens, UniProt P00533, C797S/L858R)", "IC50 [nM]": 4.8}
{"compound": "C[C@]1(O)CC[C@@H](Nc2cc(Nc3nc(-c4cnn(S(=O)(=O)C5CC5)c4)ncc3F)ncc2-c2ccn(C(F)F)n2)CC1 [Example 316]", "target-system": "EGFR L858R/C797S (Homo sapiens, UniProt P00533, C797S/L858R)", "IC50 [nM]": 406}
{"compound": "O=S(=O)(C1CC1)n1cc(-c2nccc(Nc3cc(N[C@@H]4CCC[C@H](O)C4)c(-c4csc(C(F)(F)F)n4)cn3)n2)cn1 [Example 96]", "target-system": "EGFR L858R/C797S (Homo sapiens, UniProt P00533, C797S/L858R)", "IC50 [nM]": 690}
{"compound": "O=S(=O)(C1CC1)n1cc(-c2nccc(Nc3cc(NC4CCC(NCCO)CC4)c(-c4csc(C(F)(F)F)n4)cn3)n2)cn1 (stereo not shown) [Example 97]", "target-system": "EGFR L858R/C797S (Homo sapiens, UniProt P00533, C797S/L858R)", "IC50 [nM]": 160}
{"compound": "CN(C)C(=O)[C@H]1CC[C@@H](Nc2cc(Nc3ccnc(-c4cnn(S(=O)(=O)C5CC5)c4)n3)ncc2-c2cc(C(F)(F)F)n(C)n2)CC1 [Example 257]", "target-system": "EGFR L858R/C797S (Homo sapiens, UniProt P00533, C797S/L858R)", "IC50 [nM]": 29.1}
{"compound": "CN(C)CC1(C)CCC(Nc2cc(Nc3ccnc(-c4cnn(S(=O)(=O)C5CC5)c4)n3)ncc2-c2ccn(CC(F)F)n2)CC1 (stereo not shown) [Example 246]", "target-system": "EGFR L858R/C797S (Homo sapiens, UniProt P00533, C797S/L858R)", "IC50 [nM]": 400}
{"compound": "C[C@]1(O)CC[C@@H](Nc2cc(Nc3ccnc(-c4cnn(S(=O)(=O)C5CC5)c4)n3)ncc2-c2cn3c(n2)CCC3)CC1 [Example 274]", "target-system": "EGFR L858R/C797S (Homo sapiens, UniProt P00533, C797S/L858R)", "IC50 [nM]": 3.8}
{"compound": "Cn1nc(-c2cnc(Nc3ccnc(-c4cnn(CC(F)(F)F)c4)n3)cc2N[C@H]2CC[C@@](C)(O)CC2)cc1C(F)(F)F [Example 329]", "target-system": "EGFR L858R/C797S (Homo sapiens, UniProt P00533, C797S/L858R)", "IC50 [nM]": 1140}
{"compound": "CN1CC(Nc2cc(Nc3ccnc(-c4cnn(S(=O)(=O)C5CC5)c4)n3)ncc2-c2ccn(C(F)F)n2)CCC1=O (stereo not shown) [Example 37]", "target-system": "EGFR L858R/C797S (Homo sapiens, UniProt P00533, C797S/L858R)", "IC50 [nM]": 264}
{"compound": "Cn1nc(-c2cnc(Nc3ccnc(-c4cnn(S(=O)(=O)C5CC5)c4)n3)cc2N[C@H]2CC[C@@H](CCO)CC2)cc1C(F)(F)F [Example 262]", "target-system": "EGFR L858R/C797S (Homo sapiens, UniProt P00533, C797S/L858R)", "IC50 [nM]": 5.3}
{"compound": "O=S(=O)(C1CC1)n1cc(-c2nccc(Nc3cc(N[C@H]4CC[C@@H](CO)CC4)c(-c4ccn(C5CC5)n4)cn3)n2)cn1 [Example 297]", "target-system": "EGFR L858R/C797S (Homo sapiens, UniProt P00533, C797S/L858R)", "IC50 [nM]": 3.9}
{"compound": "O=S(=O)(C1CC1)n1cc(-c2nccc(Nc3cc(NC[C@H]4CC[C@H](CO)CC4)c(-c4ccn(C(F)F)n4)cn3)n2)cn1 [Example 22]", "target-system": "EGFR L858R/C797S (Homo sapiens, UniProt P00533, C797S/L858R)", "IC50 [nM]": 21.5}
{"compound": "Cc1ncc(-c2cnc(Nc3ccnc(-c4cnn(S(=O)(=O)C5CC5)c4)n3)cc2N[C@H]2CC[C@@H](O)CC2)s1 [Example 75]", "target-system": "EGFR L858R/C797S (Homo sapiens, UniProt P00533, C797S/L858R)", "IC50 [nM]": 173}
{"compound": "O=S(=O)(C1CC1)n1cc(-c2nccc(Nc3cc(N[C@H]4CC[C@H](CO)CC4)c(-c4ccn(C(F)F)n4)cn3)n2)cn1 [Example 198]", "target-system": "EGFR L858R/C797S (Homo sapiens, UniProt P00533, C797S/L858R)", "IC50 [nM]": 3040}
{"compound": "CN(C)C(=O)n1cc(-c2nccc(Nc3cc(N[C@H]4CC[C@@](C)(O)CC4)c(-c4ccn(C(F)F)n4)cn3)n2)cn1 [Example 311]", "target-system": "EGFR L858R/C797S (Homo sapiens, UniProt P00533, C797S/L858R)", "IC50 [nM]": 1020}
{"compound": "CN(C)CCNC1CCC(Nc2cc(Nc3ccnc(-c4cnn(S(=O)(=O)C5CC5)c4)n3)ncc2-c2ccn(C(F)F)n2)CC1 (stereo not shown) [Example 99]", "target-system": "EGFR L858R/C797S (Homo sapiens, UniProt P00533, C797S/L858R)", "IC50 [nM]": 4.8}
{"compound": "Cn1ccc(-c2cnc(Nc3ccnc(-c4cnn(S(=O)(=O)C5CC5)c4)n3)cc2N[C@H]2CC[C@@H](NCCF)CC2)n1 [Example 43]", "target-system": "EGFR L858R/C797S (Homo sapiens, UniProt P00533, C797S/L858R)", "IC50 [nM]": 14.7}
{"compound": "O=S(=O)(C1CC1)n1cc(-c2nccc(Nc3cc(NC4CCCC(NCCF)C4)c(-c4ccn(C(F)F)n4)cn3)n2)cn1 (stereo not shown) [Example 194]", "target-system": "EGFR L858R/C797S (Homo sapiens, UniProt P00533, C797S/L858R)", "IC50 [nM]": 32.1}
{"compound": "Cn1ccc(-c2cnc(Nc3ccnc(-c4cnn(S(=O)(=O)C5CC5)c4)n3)cc2N[C@H]2CC[C@H](CO)CC2)n1 [Example 229]", "target-system": "EGFR L858R/C797S (Homo sapiens, UniProt P00533, C797S/L858R)", "IC50 [nM]": 43.9}
